system: TO-N3 (biotin conjugate); assay: pull-down binding Z-score (relative to library population); higher = stronger binding; details: RNA library: Library-2
Observable: pull-down binding Z-score

>>> endpoint_result("UUUGCCUCUCUCAGAAAAUAGAGUCAAA [hsa-mir-4694]")
0.157
>>> endpoint_result("GGAGAAGAACCC [IAV_invivo_PB2_1_Motif_3+IAV_invivo_PB2_1_Motif_3]")
-0.17
>>> endpoint_result("UCGUGUUAAAAAUCUGAAUUCUUCUAGAGUUCCUGAUCUUCUGGUCUAAACGAACUAAAUAUUAUAUUAGUUUUUCUGUUUGGAACUUUAAUUUUAGCCAUGG")
-0.609
>>> endpoint_result("GGUUGGCCGCUGACCCCCGCGGGGCCCCCGGCGGCC [hsa-mir-3195]")
0.0623
>>> endpoint_result("GGGACGUGUGAUGCUGUGCUUCCU [hsa-mir-3689f]")
-0.185
>>> endpoint_result("UGCAGUGCUGGGCAUGGGCUUCUCG [hsa-mir-3677]")
1.49
>>> endpoint_result("AACGGGGCGGGCCCUGGGCGGGGUAA [G4_2A2_VEGF-Pu22-mt2]")
7.22
>>> endpoint_result("CAGACAACACAUUUGUGUCUG")
-1.45
>>> endpoint_result("CAAGGGCUCUCCUGAAAGGACAGUAGAGCCCUUG [hsa-mir-4776-1]")
1.18
>>> endpoint_result("CUUAUGUUGGUUGCCAUAACAAGUGUGCCUAUUGGGUUCCACGUGCUAGCGCUAACAUAGG")
-1.11
>>> endpoint_result("GAGGGGCAUGCACUGUGUUCACCCUG [hsa-mir-134]")
0.687
>>> endpoint_result("UGUUGGUUGAAGAUGCCUUUCAACA [hsa-mir-552]")
-0.937
>>> endpoint_result("CCUCUUGAGUGCAUUAAAGACCUUCUAGCACGUGCUGGUAAAGCUUCAUGCACUUUGUCCGAACAACUGGACUUUAUUGACACUAAGAGG [SHAPE_invitro_SARS-CoV-2_Multi_2_ComplexLevel_1]")
0.899
>>> endpoint_result("UGGAGCUAGACCACAUGGGUUCA [hsa-mir-5100]")
-0.131
>>> endpoint_result("CCAAGUCUGACCACCUGAGGAAUGCCUGG [hsa-mir-1269a]")
-0.288
>>> endpoint_result("GGGCAGAAAUAGAUGGCCU [hsa-mir-4270]")
1
>>> endpoint_result("UUGUUCGUUGCAUUUUUAGGAACAA [hsa-mir-3613]")
-1.52
>>> endpoint_result("CAGGACACGAGUAACUCGUCUAUCUUCUG [SARS-CoV-2-Conserved-Structured-36_Interval-120-237_Motif_2]")
0.324
>>> endpoint_result("UGGGAGUGAUCCCAACAGCUGAGCUCCCU [hsa-mir-7106]")
0.756
>>> endpoint_result("UAUCCAAACGCAAGCUUCGAUAAUUUUAAGUUUGUAUGUGAUA [DMSMaPseq_invitro_SARS-CoV-2_Motif_115]")
-0.225
>>> endpoint_result("GUGUCGCCCCACGAGGGGGACUGU [hsa-mir-4322]")
0.327
>>> endpoint_result("CUUUCUGUUGGCUAAAAGAAAAGAAAG [hsa-mir-518e]")
-0.366
>>> endpoint_result("GCUAAAUUGUUACAUAAACCUAUUGUUUGGCAUGUUAACAAUGC [SHAPE_invitro_SARS-CoV-2_Motif_124]")
-0.96
>>> endpoint_result("GUCACCAGCCCUCAUGUACUUGUGAC [hsa-mir-6820]")
0.222
>>> endpoint_result("CUCUCUGUUGCUCUGAAGGAG [hsa-mir-346]")
-0.183
>>> endpoint_result("UGGGCUCCCCUAGACUAGGACUCCA [hsa-mir-1825]")
-0.37
>>> endpoint_result("UAAUUAUAAAUUACCAGAUGAUUUUACAGGCUGCGUUAUAGCUUGGAAUUCUAACAAUCUUGAUUCUAAGGUUGGUGGUAAUUAUAAUUA")
-0.838
>>> endpoint_result("UCAGCUGUAAUACAUGGAUUGGCUGG [hsa-mir-30b]")
-0.379
>>> endpoint_result("GGCGCUGGGACCCCACUAGGGUGGCGCC [hsa-mir-4488]")
1.25
>>> endpoint_result("UAAGGAGAGUGUUCAGACAUUCUUUAAGCUUG [DMSMaPseq_invitro_SARS-CoV-2_Motif_43]")
-0.507
>>> endpoint_result("AGCCCUGUUGUUGUCAGAUAGUGU [hsa-mir-550a-2]")
0.216
>>> endpoint_result("GUGAGUUAGAAAAGCUCAAUUCAC [hsa-mir-4457]")
-0.662
>>> endpoint_result("GGAUGAGAGAACUCAUCC [IAV_invivo_NP_5_Motif_6+IAV_invivo_NP_5_Motif_6]")
-0.724

###

test system: TO-3-N3-2 (biotin conjugate); assay: pull-down binding Z-score (relative to library population); higher = stronger binding; conditions: RNA library: Library-2
Listed next: entries and their corresponding pull-down binding Z-score.
Observable: pull-down binding Z-score

>>> endpoint_result("CUACAUCGUGGAAGCCAGCACCAUGCAG [hsa-mir-455]")
-0.206
>>> endpoint_result("GGAAAUGAUUCC [IAV_invivo_PB2_1_Motif_4+IAV_invivo_PB2_1_Motif_4]")
-0.712
>>> endpoint_result("AGGUUGGCUGGGCCAGGCCUGACCU [hsa-mir-4722]")
-0.00273
>>> endpoint_result("UUUUCAGUUCCUGAGAUC [hsa-mir-4287]")
-0.202
>>> endpoint_result("UUGACCAAUCAUCUUAUUGACUAGA [hsa-mir-6502]")
-0.177
>>> endpoint_result("AGUCACUUAGAUUACAUGUCACU [hsa-mir-892c]")
0.0543
>>> endpoint_result("CGGGCUGAUUGCGCUAACAGUGGCCCC [hsa-mir-4783]")
-0.117
>>> endpoint_result("CUUUCCUUUUUGUCUGUACUGGGAAG [hsa-mir-373]")
-0.328
>>> endpoint_result("GUGGAGUCGGGUCAGACUUCAA [hsa-mir-378c]")
-0.477
>>> endpoint_result("UCCACACUGACAAGGGCCGUGGGG [hsa-mir-3191]")
0.217
>>> endpoint_result("AUGAGAAGUGCUCUGCCUAUACAGUUGAACUCGGUACAGAAGUAAAUGAGUUCGCCUGUGUUGUGGCAGAUGCUGUCAU [SHAPE_invitro_SARS-CoV-2_Motif_53]")
-0.278
>>> endpoint_result("CAGCAGCAGCAGCAGCAGCAGCAGCAGCAGCAGCAGCAGCAGCAGCAG [r(CAG)16]")
-0.0193
>>> endpoint_result("UGAGACCUGGUGCAGAACGGGAAGGCGA [hsa-mir-551b]")
0.479
>>> endpoint_result("GACUUCAGUAACUCAGGUUCUGAUGUU")
-0.426
>>> endpoint_result("GUUAAAAAUCUGAAUUCUUCUAGAGUUCCUGAUCUUCUGGUCUAAAC")
0.157
>>> endpoint_result("GGUCUAUAUGCC [SHAPE_invivo_SARS-CoV-2_Motif_218]")
-0.349

###

test system: TO-3-N3 (biotin conjugate); test: pull-down binding Z-score (relative to library population); higher = stronger binding; details: RNA library: Library-2
Observable: pull-down binding Z-score

>>> endpoint_result("GAUGGUCAAGUAGACUUAUUUAGAAAUGCCCGUAAUGGUGUUCUUAUUACAGAAGGUAGUGUUAAAGGUUUACAACCAUC")
-0.346
>>> endpoint_result("GUACGAUCGAGUGUAC [DMSMaPseq_invitro_SARS-CoV-2_Motif_538]")
0.143
>>> endpoint_result("UGGAGGUGAUGGAUGUUUUCCUCCG [hsa-mir-671]")
-0.607
>>> endpoint_result("CCCAGCCUUGGCGUUCAGGUGCUGAG [hsa-mir-3150b]")
-0.0824
>>> endpoint_result("CUGUGACGUGCUCCAUCACCGGGCAG [hsa-mir-3714]")
-0.37
>>> endpoint_result("GGGCGGAACACCCAGCCCC [hsa-mir-4417]")
-0.4
>>> endpoint_result("GUGGGUCAAGUUUAGAGAUGCACCAAC [hsa-mir-490]")
1.32
>>> endpoint_result("AAAAUGUUUGUCAUAAACCGUUUU [hsa-mir-335]")
-0.185
>>> endpoint_result("CCCACUCCAAAGUUCACAGAAUGGGUGG [hsa-mir-541]")
2.05
>>> endpoint_result("GAGCCCUGAGGGGCUC [hsa-mir-6087]")
0.542
>>> endpoint_result("CUGAGGACUGAGGCUCACCUUG [hsa-mir-6772]")
-0.057
>>> endpoint_result("GUACAUGGGCACACUUUCUUAUGAACAAUUUAAGAAAGGUGUUCAGAUAC [DMSMaPseq_invitro_SARS-CoV-2_Motif_106]")
-0.377
>>> endpoint_result("CACUCAAAGGCGGUGCACCAACAAAGGUUACUUUUGGUGAUGACACUGUGAUAGAAGUG [DMSMaPseq_invitro_SARS-CoV-2_Motif_50]")
-0.531
>>> endpoint_result("CUGGCAGUAACCAG [SHAPE_invivo_SARS-CoV-2_Motif_538]")
-0.215
>>> endpoint_result("AUGAUAUAUUGUGAGAGCCAUGUCAU [hsa-mir-6718]")
0.0536
>>> endpoint_result("CCCAAACUUGGAGCACUUGACCUUUGGC [hsa-mir-4687]")
0.611
>>> endpoint_result("CUACACUAGUGCCACAAGAGCACUAUGUUAG")
-0.402
>>> endpoint_result("AAUUAUAAAUUACCAGAUGAUUUUACAGGCUGCGUUAUAGCUUGGAAUUCUAACAAUCUUGAUUCUAAGGUUGGUGGUAAUUAUAAUU")
-0.932
